# system.under.test: Pandemic H1N1 N-terminal PA endonuclease (PAN) (Influenza A virus, UniProt C3W5S0)
Below, each of the compounds is paired with its reported IC50 value.

Below: 5 compounds and their reported IC50.
[Q] Write down the reported IC50 of O=C1c2c(ccc(O)c2O)CN1Cc1ccccc1 [Compound 14, 2-benzyl-6,7-dihydroxyisoindolin-1-one] , test system: Pandemic H1N1 N-terminal PA endonuclease (PAN) (Influenza A virus, UniProt C3W5S0).
[A] 23 to 46 nM

[Q] Write down the reported IC50 of O=C1c2c(ccc(O)c2O)CN1Cc1ccc([N+](=O)[O-])cc1 [Compound 20] , test system: Pandemic H1N1 N-terminal PA endonuclease (PAN) (Influenza A virus, UniProt C3W5S0).
[A] 23 to 46 nM

[Q] Write down the reported IC50 of O=C1c2c(ccc(O)c2O)CN1Cc1ccc2ccccc2c1 [Compound 21] , test system: Pandemic H1N1 N-terminal PA endonuclease (PAN) (Influenza A virus, UniProt C3W5S0).
[A] 30 nM

[Q] Write down the reported IC50 of O=C1c2c(ccc(O)c2O)CN1Cc1ccc(F)cc1 [Compound 18] , test system: Pandemic H1N1 N-terminal PA endonuclease (PAN) (Influenza A virus, UniProt C3W5S0).
[A] 23 to 46 nM

[Q] Write down the reported IC50 of O=C1c2c(ccc(O)c2O)CN1Cc1ccc(O)cc1 [Compound 17] , test system: Pandemic H1N1 N-terminal PA endonuclease (PAN) (Influenza A virus, UniProt C3W5S0).
[A] 23 to 46 nM

Kindly review the next compound as well.
[Q] Write down the reported IC50 of O=C1c2c(ccc(O)c2O)CN1Cc1ccc(F)c(Cl)c1 [Compound 15] , test system: Pandemic H1N1 N-terminal PA endonuclease (PAN) (Influenza A virus, UniProt C3W5S0).
[A] 23 to 46 nM

====

# system.under.test: influenza virus polymerase (Influenza A virus, UniProt P03433)
# test.name: cell-based
# Format: cell-based, influenza virus A/PR/8/34
# settings: read-out: Inhibition of polymerase activity EC50
endpoint.label: pEC50
Please report pEC50 as the negative decimal logarithm of the molar concentration, giving only the number.

[Q] What value of pEC50 has been reported for the following compound? O=C1c2c(ccc(O)c2O)CN1CCc1ccc(O)cc1
[A] 4.72

Kindly review the next compound as well.
[Q] What value of pEC50 has been reported for the following compound? Cc1ccc(CN2Cc3ccc(O)c(O)c3C2=O)cc1
[A] 5.39

====

# system.under.test: influenza virus polymerase (Influenza A virus, UniProt P03433)
# test.name: cell-based
# Type: cell-based, influenza virus A/PR/8/34
# settings: Inhibition of polymerase activity EC50
endpoint.label: pEC50
Please report pEC50 as the negative decimal logarithm of the molar concentration, giving only the number.

Below: 3 compounds and their reported pEC50.
[Q] What value of pEC50 has been reported for the following compound? O=C1c2c(ccc(O)c2O)CN1Cc1ccc2ccccc2c1 [Compound 21]
[A] 5.27

[Q] What value of pEC50 has been reported for the following compound? O=C1c2c(ccc(O)c2O)CN1Cc1cccc2ccccc12 [Compound 22]
[A] 4.59

[Q] What value of pEC50 has been reported for the following compound? O=C1c2c(ccc(O)c2O)CN1Cc1ccc(C(F)(F)F)cc1 [Compound 19]
[A] 4.72

Further cases:
[Q] What value of pEC50 has been reported for the following compound? O=C1c2c(ccc(O)c2O)CN1Cc1ccc(F)c(Cl)c1 [Compound 15]
[A] 5.44

[Q] What value of pEC50 has been reported for the following compound? O=C1c2c(ccc(O)c2O)CN1Cc1ccc(F)cc1 [Compound 18]
[A] 5.09

[Q] What value of pEC50 has been reported for the following compound? O=C1c2c(ccc(O)c2O)CN1Cc1ccc([N+](=O)[O-])cc1 [Compound 20]
[A] 4.55

====

# system.under.test: UniProt:P03433
# test.name: cell-based
# Format: cell-based, influenza virus A/PR/8/34
# settings: Inhibition of polymerase activity EC50
endpoint.label: EC50 (µM)
Give the quantity in µM, number only.

Below: 2 compounds and their reported EC50.
[Q] What value of EC50 has been reported for the following compound? O=C1c2c(ccc(O)c2O)CN1Cc1ccccc1 [Compound 14, 2-benzyl-6,7-dihydroxyisoindolin-1-one]
[A] 12

[Q] What value of EC50 has been reported for the following compound? NC(=O)c1ncn([C@@H]2O[C@H](CO)[C@@H](O)[C@H]2O)n1
[A] 11

Kindly review the next compound as well.
[Q] What value of EC50 has been reported for the following compound? O=C1c2c(ccc(O)c2O)CN1Cc1ccc(O)cc1
[A] 4.2

Source of measurements: paper PMC8838982
